protocolDetails: folding enthalpy; higher = less favourable; fluorescence melt of hairpins on a sequencing array, two-state fit
conditionContext: sodium 0.088 M
recordedEndpoint: folding enthalpy (kcal/mol)
# output: bare number, implied unit kcal/mol

Per the record, GTGCGGCGAAAGCCTCAC (((.(((....))).))) has folding enthalpy of -29.4

Per the record, GTTACCGGAAACGGTGAC ((.((((....)))).)) has folding enthalpy of -30.4

Per the record, GAACCAGGAAACTGATTC (((.(((....))).))) has folding enthalpy of -20.5

Per the record, GTGGGCCGAAAGGCTCAC (((.(((....))).))) has folding enthalpy of -29.6

Per the record, CGCTCGGAAACGAGGCG ((((((....))).))) has folding enthalpy of -30.6

Per the record, GCATGTACGAAAGTATGC (((..(((....)))))) has folding enthalpy of -29.3

====

protocolDetails: melting temperature; fluorescence melt of hairpins on a sequencing array, two-state fit, raised by 9.35 °C to match UV melts
conditionContext: sodium 0.088 M
Assignment: determine reported Tm for the given sequences.
# output: bare number, implied unit °C

Per the record, TAGACGAAAGTCTA (((((....))))) has Tm of 50.9

Per the record, GGCAACTCGAAAGAGGCC (((..(((....)))))) has Tm of 48.8

Per the record, GAACCTGGAAACGGGTTC (((((.(....).))))) has Tm of 50.7

====

protocolDetails: melting temperature; fluorescence melt of hairpins on a sequencing array, two-state fit, raised by 9.35 °C to match UV melts
conditionContext: sodium 0.088 M
Assignment: determine reported Tm for the given sequences.

Per the record, GCCATAGGAAACTACGGC (((.(((....))).))) has Tm of 40.6 °C

Per the record, GTCCCAGGAAACTGAGAC (((.(((....))).))) has Tm of 39 °C

Per the record, GACAAAACGAAAGTTGTC (((..(((....)))))) has Tm of 39.3 °C

Per the record, GGTGTCGAAAGACTAACC ((((((....)))..))) has Tm of 40.4 °C

Per the record, GCGTCTCAACGC ((((....)))) has Tm of 56.6 °C

Per the record, GTTCCGGGAAACCAGAAC ((((.((....)).)))) has Tm of 38.7 °C

Per the record, GATAGCGAAAGCTATC ((((((....)))))) has Tm of 61.3 °C

Per the record, GCTCCGCGAAAGCGCTGC ((..(((....)))..)) has Tm of 37.4 °C

Per the record, GTTAGGCCGAAAGGCAAC (((..(((....)))))) has Tm of 32.1 °C

====

protocolDetails: melting temperature; fluorescence melt of hairpins on a sequencing array, two-state fit, raised by 9.35 °C to match UV melts
conditionContext: sodium 0.088 M
Assignment: determine reported Tm for the given sequences.

Per the record, GCGTCACCACGC ((((....)))) has Tm of 53 °C

Per the record, GTCGACGAAAGTCGGAC ((((((....))).))) has Tm of 58.1 °C

Per the record, GGAGCTGGAAACAGCTTC (.(((((....))))).) has Tm of 53.1 °C

Per the record, GGCTAGGGAAACTTAGCC (((((.(....).))))) has Tm of 49.4 °C

src = the array DNA melting data of Ke et al. (doi:10.1101/2024.01.08.574731)
